Every entry's value here was drawn from ChEMBL document CHEMBL1149565.

- SUBJECT OF TEST: Melanocortin receptor 4 (Homo sapiens)
- Sequence (P32245 whole entry): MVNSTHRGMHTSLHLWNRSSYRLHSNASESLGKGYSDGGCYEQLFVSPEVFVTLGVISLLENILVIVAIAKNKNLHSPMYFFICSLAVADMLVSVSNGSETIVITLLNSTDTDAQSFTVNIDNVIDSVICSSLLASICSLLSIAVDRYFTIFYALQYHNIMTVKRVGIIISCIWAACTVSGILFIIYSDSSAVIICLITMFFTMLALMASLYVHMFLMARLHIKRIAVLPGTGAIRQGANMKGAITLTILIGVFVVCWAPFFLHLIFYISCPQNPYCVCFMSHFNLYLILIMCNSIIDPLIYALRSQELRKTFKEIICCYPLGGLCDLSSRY
- EXPERIMENT SUMMARY: Displacement of [125I]NDP-alphaMSH from human melanocortin 4 receptor expressed in CHOK1 cells
- Type: cell-based, CHO-K1
- EXPERIMENTAL PARAMETERS: read-out: Ki
pKi: −log10 of the molar value.
Assign yes to entries whose pKi meets or exceeds 8; assign no to the rest.

Please review the entries below; each comes with its answer.
Prompt: // inclusive: pKi at least 8? input: `CC(=O)c1ccc(Nc2nc3ccc(C(=O)N(CCC(C)C)CCC(C)C)cc3n2CCCN2CCN(C)CC2)cc1`
Completion: no

Prompt: // inclusive: pKi at least 8? input: `CNC(=O)c1ccc(Nc2nc3ccc(C(=O)N(CCC(C)C)CCC(C)C)cc3n2CCCN2CCCCC2)cc1`
Completion: yes

Prompt: // inclusive: pKi at least 8? input: `CC(=O)Nc1ccc(Nc2nc3ccc(C(=O)N(CCC(C)C)CCC(C)C)cc3n2CCCN2CCCCC2)cc1`
Completion: yes

Prompt: // inclusive: pKi at least 8? input: `COc1cc(Nc2nc3ccc(C(=O)N(CC(C)C)CC(C)C)cc3n2CCCN)cc(OC)c1OC`
Completion: no

Prompt: // inclusive: pKi at least 8? input: `CC(=O)c1cccc(Nc2nc3ccc(C(=O)N(CCC(C)C)CCC(C)C)cc3n2CCCN2CCCCC2)c1`
Completion: yes

More entries:
Prompt: // inclusive: pKi at least 8? input: `CC(=O)c1ccc(CNc2nc3ccc(C(=O)N(CCC(C)C)CCC(C)C)cc3n2CCCN2CCCCC2)cc1`
Completion: yes

Prompt: // inclusive: pKi at least 8? input: `CC(C)CCN(CCC(C)C)C(=O)c1ccc2nc(Nc3ccc([N+](=O)[O-])cc3)n(CCCN3CCCCC3)c2c1`
Completion: yes

Prompt: // inclusive: pKi at least 8? input: `CC(=O)c1ccc(Nc2nc3ccc(C(=O)N(CCC(C)C)CCC(C)C)cc3n2CC(C)(C)CN(C)C)cc1`
Completion: no

Prompt: // inclusive: pKi at least 8? input: `CC(=O)c1ccc(Nc2nc3ccc(C(=O)N(CCC(C)C)CCC(C)C)cc3n2C2CCN(C)CC2)cc1`
Completion: no
